target: T1, human A-beta(1-40) peptide, monomeric (BAM) (human, biotin at the C-terminus in capture ELISA, SPR and TR-FRET; not biotinylated where coated directly (Example 7)); test: 60A10 TR-FRET assay (labelled ABII60A10)
T1 construct: synthetic peptide (Anaspec), TFA/HFIP treated to give monomer; also called monomeric A-beta
Field: pIC50. Provide a value for each of the binders that follow.
For clarity, pIC50 is expressed as the negative log10 of concentration in mol/L.

Need pIC50, item ABII60A10-35GS-ABII42D4 (designed binder, biparatopic VHH construct) EVQLVESGGGLVQAGGSLRLSCAASGRTFNNYNMGWFRQAPGKEREFVAAVSRSGVSTYYADSVKGRFTISRDNAKNAVYLQMNSLKPEDTAIYYCGAAYRGTAINVRRSYDSWGQGTQVTVSSGGGGSGGGGSGGGGSGGGGSGGGGSGGGGSGGGGSEVQLVESGGGLVLAGGSLRLSCVHSGPTFSTDTMGWFRQAPGKEREFVAAVTWNSGRTNYADSVKGRFTVSRDNTRNAAYLQMSGLKDEDTAVYYCTAHRLVVGGTSVGDWRYWGQGTQVTVSS
10.04

Need pIC50, item ABII42D4-35GS-ABII60A10 (designed binder, biparatopic VHH construct) EVQLVESGGGLVLAGGSLRLSCVHSGPTFSTDTMGWFRQAPGKEREFVAAVTWNSGRTNYADSVKGRFTVSRDNTRNAAYLQMSGLKDEDTAVYYCTAHRLVVGGTSVGDWRYWGQGTQVTVSSGGGGSGGGGSGGGGSGGGGSGGGGSGGGGSGGGGSEVQLVESGGGLVQAGGSLRLSCAASGRTFNNYNMGWFRQAPGKEREFVAAVSRSGVSTYYADSVKGRFTISRDNAKNAVYLQMNSLKPEDTAIYYCGAAYRGTAINVRRSYDSWGQGTQVTVSS
10.08
